- Test summary: Half life in BALB/cAnNCrl mouse at 10 mg/kg, po
- Assay type: ADME, organism-based
- Design: dose 10 mg/kg, route oral
- Condition set: in vivo
# maps each entry to its half-life
Give the value in h but do not write h after it.

These solved cases illustrate the format of a correct answer.
Cc1ccc(-n2nc(C(C)(C)C)cc2NC(=O)Nc2ccc(Oc3ccnc4[nH]c(=O)[nH]c34)cc2F)cc1	5.3
CC(C)(C)c1cc(NC(=O)Nc2ccc(Oc3ccnc4[nH]c(=O)[nH]c34)cc2F)n(-c2ccccc2)n1	2.8
Cc1ccc(-n2nc(C(C)(C)C)cc2NC(=O)Nc2ccc(Oc3ccnc4[nH]c(=O)n(C)c34)cc2)cc1	3.4
Cn1c(=O)[nH]c2nccc(Oc3ccc(NC(=O)Nc4cc(C(C)(C)C)nn4-c4cccnc4)c4ccccc34)c21	0.8
Cc1ccc(-n2nc(C(C)(C)C)cc2NC(=O)Nc2ccc(Oc3ccnc4c3n(C)c(=O)n4C)cc2F)cc1	9.4

Ask | GET /values?readout=half-life&item= `Cc1ccc(-n2nc(C(C)(C)C)cc2NC(=O)Nc2ccc(Oc3ccnc4c3[nH]c(=O)n4C)cc2F)cn1`
Reply | 12.6

Ask | GET /values?readout=half-life&item= `Cc1ccc(-n2nc(C(C)(C)C)cc2NC(=O)Nc2ccc(Oc3ccnc4[nH]c(=O)n(C)c34)c3ccccc23)cc1`
Reply | 8.4

Ask | GET /values?readout=half-life&item= `Cn1c(=O)n(C)c2c(Oc3ccc(NC(=O)Nc4cc(C(C)(C)C)nn4-c4ccccc4)c(F)c3)ccnc21`
Reply | 2.1

Ask | GET /values?readout=half-life&item= `Cc1ccc(-n2nc(C(C)(C)C)cc2NC(=O)Nc2ccc(Oc3ccnc4c3[nH]c(=O)n4C)cc2)cc1`
Reply | 3.4

---

- Study target: Serine/threonine-protein kinase B-raf (Homo sapiens, UniProt P15056, V600E)
- Sequence (P15056 2-766 V600E limits assumed): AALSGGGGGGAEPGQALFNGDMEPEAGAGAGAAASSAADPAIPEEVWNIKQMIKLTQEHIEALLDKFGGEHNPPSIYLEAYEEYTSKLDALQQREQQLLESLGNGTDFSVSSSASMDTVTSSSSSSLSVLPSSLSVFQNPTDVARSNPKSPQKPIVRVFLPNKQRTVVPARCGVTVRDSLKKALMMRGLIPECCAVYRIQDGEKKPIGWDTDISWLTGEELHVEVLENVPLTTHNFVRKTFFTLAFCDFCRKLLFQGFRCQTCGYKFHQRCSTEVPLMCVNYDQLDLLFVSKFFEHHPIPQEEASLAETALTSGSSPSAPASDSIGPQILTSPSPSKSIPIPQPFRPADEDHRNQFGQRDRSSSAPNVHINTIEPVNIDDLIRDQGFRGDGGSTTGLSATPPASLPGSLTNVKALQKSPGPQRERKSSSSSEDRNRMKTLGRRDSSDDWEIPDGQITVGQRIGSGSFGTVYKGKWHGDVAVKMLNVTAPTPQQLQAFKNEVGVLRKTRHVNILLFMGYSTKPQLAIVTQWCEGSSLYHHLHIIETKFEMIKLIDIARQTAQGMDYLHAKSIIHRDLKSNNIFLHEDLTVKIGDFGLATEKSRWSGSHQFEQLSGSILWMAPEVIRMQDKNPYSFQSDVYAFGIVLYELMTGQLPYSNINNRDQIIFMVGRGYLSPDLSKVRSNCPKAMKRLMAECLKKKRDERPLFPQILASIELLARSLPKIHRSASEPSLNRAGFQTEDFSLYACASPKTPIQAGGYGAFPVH
- Test summary: Inhibition of human BRAF V600E mutant expressed in baculovirus system
Measured parameter: pIC50
Here pIC50 is given on a logarithmic scale as minus log10 of the concentration in mol/L.

Ask | GET /values?readout=pIC50&item= `CC(C)(C)c1cc(NC(=O)Nc2ccc(Oc3ccnc4[nH]c(=O)[nH]c34)c3ccccc23)n(-c2ccc(F)cc2)n1`
Reply | 6.62

Ask | GET /values?readout=pIC50&item= `CC(C)(C)c1cc(NC(=O)Nc2ccc(Oc3ccnc4[nH]c(=O)[nH]c34)cc2)n(-c2ccc(F)cc2F)n1`
Reply | 6.98

Ask | GET /values?readout=pIC50&item= `Cn1nc(C(C)(C)C)cc1NC(=O)Nc1ccc(Oc2ccnc3[nH]c(=O)n(C)c23)cc1`
Reply | 7.08

Ask | GET /values?readout=pIC50&item= `Cc1ccc(-n2nc(C(C)(C)C)cc2NC(=O)Nc2ccc(Oc3ccnc4[nH]c(=O)[nH]c34)c3ccccc23)cc1`
Reply | 6.17

Ask | GET /values?readout=pIC50&item= `CSc1cc(Oc2ccnc3[nH]c(=O)[nH]c23)ccc1NC(=O)Nc1cc(C(C)(C)C)nn1-c1ccc(C)cc1`
Reply | 7.12

Ask | GET /values?readout=pIC50&item= `Cc1ccc(-n2nc(C(C)(C)C)cc2NC(=O)Nc2ccc(Oc3ccnc4c3[nH]c(=O)n4C)c3ccccc23)cc1`
Reply | 5.20

Ask | GET /values?readout=pIC50&item= `Cn1c(=O)n(C)c2c(Oc3ccc(NC(=O)Nc4cc(C(C)(C)C)nn4-c4ccccc4)c(F)c3)ccnc21`
Reply | 5.96

Ask | GET /values?readout=pIC50&item= `CC(C)(C)c1cc(NC(=O)Nc2ccc(Oc3ccnc4[nH]c(=O)[nH]c34)cc2F)n(-c2ccccc2)n1`
Reply | 7.12

Ask | GET /values?readout=pIC50&item= `Cn1nc(C(C)(C)C)cc1NC(=O)Nc1ccc(Oc2ccnc3[nH]c(=O)[nH]c23)c2ccccc12`
Reply | 7.96

Ask | GET /values?readout=pIC50&item= O=C(Nc1ccc(Oc2ccnc3[nH]c(=O)[nH]c23)cc1)Nc1nnc(C2CCCO2)s1 (configuration not stated)
Reply | 6.77

---

- Study target: Serine/threonine-protein kinase B-raf (Homo sapiens, UniProt P15056, V600E)
- Test summary: Inhibition of BRAF V600E mutant ERK phosphorylation in human WM266.4 cells
- Format: cell-based
Measured parameter: pIC50
Here pIC50 is given on a logarithmic scale as minus log10 of the concentration in mol/L.

These solved cases illustrate the format of a correct answer.
CSc1cc(Oc2ccnc3[nH]c(=O)[nH]c23)ccc1NC(=O)Nc1cc(C(C)(C)C)nn1-c1ccc(C)cc1	7.25
Cn1c(=O)[nH]c2nccc(Oc3ccc(NC(=O)Nc4cc(C(C)(C)C)nn4-c4ccc(F)cc4)cc3)c21	5.87
Cc1ccc(-n2nc(C(C)(C)C)cc2NC(=O)Nc2ccc(Oc3ccnc4[nH]c(=O)[nH]c34)cc2F)cc1	7.40

API: the following record is the query input.
Ask | GET /values?readout=pIC50&item= `CC(C)c1cc(NC(=O)Nc2ccc(Oc3ccnc4[nH]c(=O)[nH]c34)cc2)n(-c2ccccc2)n1`
Reply | 5.71

---

# maps each entry to its bioavailability
- Test summary: Oral bioavailability in BALB/cAnNCrl mouse at 10 mg/kg
- Format: ADME, organism-based
- Condition set: in vivo

Cc1ccc(-n2nc(C(C)(C)C)cc2NC(=O)Nc2ccc(Oc3ccnc4c3[nH]c(=O)n4C)cc2)cc1	30%
Cc1ccc(-n2nc(C(C)(C)C)cc2NC(=O)Nc2ccc(Oc3ccnc4[nH]c(=O)[nH]c34)cc2F)cc1	7%
Cc1ccc(-n2nc(C(C)(C)C)cc2NC(=O)Nc2ccc(Oc3ccnc4c3[nH]c(=O)n4C)cc2F)cn1	17%
Cc1ccc(-n2nc(C(C)(C)C)cc2NC(=O)Nc2ccc(Oc3ccnc4[nH]c(=O)n(C)c34)c3ccccc23)cc1	43%
Cc1ccc(-n2nc(C(C)(C)C)cc2NC(=O)Nc2ccc(Oc3ccnc4c3n(C)c(=O)n4C)cc2F)cc1	31%

Ask | GET /values?readout=bioavailability&item= `Cc1ccc(-n2nc(C(C)(C)C)cc2NC(=O)Nc2ccc(Oc3ccnc4[nH]c(=O)n(C)c34)cc2)cc1`
Reply | 34%

Ask | GET /values?readout=bioavailability&item= `CC(C)(C)c1cc(NC(=O)Nc2ccc(Oc3ccnc4[nH]c(=O)[nH]c34)cc2F)n(-c2ccccc2)n1`
Reply | 24%

Ask | GET /values?readout=bioavailability&item= `Cn1c(=O)n(C)c2c(Oc3ccc(NC(=O)Nc4cc(C(C)(C)C)nn4-c4ccccc4)c(F)c3)ccnc21`
Reply | 59%

Ask | GET /values?readout=bioavailability&item= `Cn1c(=O)[nH]c2nccc(Oc3ccc(NC(=O)Nc4cc(C(C)(C)C)nn4-c4cccnc4)c4ccccc34)c21`
Reply | 5%

---

- Test summary: Tmax in BALB/cAnNCrl mouse at 10 mg/kg, po
- Type: ADME, organism-based
- Set-up: dose 10 mg/kg, route oral
- Condition set: in vivo
# maps each entry to its Tmax
Give the value in min but do not write min after it.

These solved cases illustrate the format of a correct answer.
Cn1c(=O)n(C)c2c(Oc3ccc(NC(=O)Nc4cc(C(C)(C)C)nn4-c4ccccc4)c(F)c3)ccnc21	30
Cn1c(=O)[nH]c2nccc(Oc3ccc(NC(=O)Nc4cc(C(C)(C)C)nn4-c4cccnc4)c4ccccc34)c21	30
Cc1ccc(-n2nc(C(C)(C)C)cc2NC(=O)Nc2ccc(Oc3ccnc4c3[nH]c(=O)n4C)cc2)cc1	60
Cc1ccc(-n2nc(C(C)(C)C)cc2NC(=O)Nc2ccc(Oc3ccnc4[nH]c(=O)n(C)c34)cc2)cc1	60

API: the following record is the query input.
Ask | GET /values?readout=Tmax&item= `Cc1ccc(-n2nc(C(C)(C)C)cc2NC(=O)Nc2ccc(Oc3ccnc4[nH]c(=O)n(C)c34)c3ccccc23)cc1`
Reply | 60

---

- Study target: Serine/threonine-protein kinase B-raf (Homo sapiens, UniProt P15056, V600E)
- Test summary: Inhibition of BRAF V600E mutant ERK phosphorylation in human WM266.4 cells
- Format: cell-based
Measured parameter: IC50 (nM)
Give the value in nM but do not write nM after it.

These solved cases illustrate the format of a correct answer.
CC(C)(C)c1cc(NC(=O)Nc2ccc(Oc3ccnc4[nH]c(=O)[nH]c34)cc2)n(C(C)(C)C)n1	33000
CC(C)(C)c1cc(NC(=O)Nc2ccc(Oc3ccnc4[nH]c(=O)[nH]c34)cc2)n(-c2ccccn2)n1	6400
CC(C)(C)c1cc(NC(=O)Nc2ccc(Oc3ccnc4[nH]c(=O)[nH]c34)cc2)n(-c2ccc(Cl)cc2)n1	350
Cn1c(=O)n(C)c2c(Oc3ccc(NC(=O)Nc4cc(C(C)(C)C)nn4-c4ccccc4)c(F)c3)ccnc21	122
Cn1c(=O)[nH]c2nccc(Oc3ccc(NC(=O)Nc4cc(C(C)(C)C)nn4-c4ccccc4)c4ccccc34)c21	19
Cn1nc(C(C)(C)C)cc1NC(=O)Nc1ccc(Oc2ccnc3[nH]c(=O)[nH]c23)cc1	28000
Cc1ccc(-n2nc(C(C)(C)C)cc2NC(=O)Nc2ccc(Oc3ccnc4c3n(C)c(=O)n4C)cc2F)cc1	52
Cn1nc(C(C)(C)C)cc1NC(=O)Nc1ccc(Oc2ccnc3c2[nH]c(=O)n3C)c2ccccc12	470

Ask | GET /values?readout=IC50&item= `Cn1nc(C(C)(C)C)cc1NC(=O)Nc1ccc(Oc2ccnc3[nH]c(=O)[nH]c23)c2ccccc12`
Reply | 2300

Ask | GET /values?readout=IC50&item= `Cc1ccc(-n2nc(C(C)(C)C)cc2NC(=O)Nc2ccc(Oc3ccnc4[nH]c(=O)[nH]c34)cc2)cc1`
Reply | 420

Ask | GET /values?readout=IC50&item= `CC(C)(C)c1cc(NC(=O)Nc2ccc(Oc3ccnc4[nH]c(=O)[nH]c34)cc2)n(-c2ccccc2)n1`
Reply | 620

Ask | GET /values?readout=IC50&item= `Cc1ccc(-n2nc(C(C)(C)C)cc2NC(=O)Nc2ccc(Oc3ccnc4[nH]c(=O)[nH]c34)c3ccccc23)cc1`
Reply | 14

Ask | GET /values?readout=IC50&item= `CC(C)(C)c1cc(NC(=O)Nc2ccc(Oc3ccnc4[nH]c(=O)[nH]c34)cc2)n(Cc2ccccc2)n1`
Reply | 13400

Ask | GET /values?readout=IC50&item= `Cn1c(=O)[nH]c2nccc(Oc3ccc(NC(=O)Nc4cc(C(C)(C)C)nn4-c4cccnc4)cc3)c21`
Reply | 830

Ask | GET /values?readout=IC50&item= `Cc1ccc(-n2nc(C(C)(C)C)cc2NC(=O)Nc2ccc(Oc3ccnc4c3[nH]c(=O)n4C)cc2)cc1`
Reply | 36
